# Tested on: OVCAR-3 ovarian
# Protocol: NCI tumour cell line growth inhibition, 48 h
In this section, each of the compounds is paired with its reported GI50.

Incoming: GI50 lookup needed for O=C1CC(c2c[nH]c3ccc(F)cc23)C(=O)N1 (stereo not drawn) , thanks.
Outgoing: > 100 µM

Incoming: GI50 lookup needed for `CCN(CC)c1ccc(/C=C/C(=O)c2ccc(Nc3nc(Nc4ccccc4)nc(Nc4ccccc4)n3)cc2)cc1` , thanks.
Outgoing: 2.12 µM

Incoming: GI50 lookup needed for `COc1cc2oc(-c3cccc(C(=O)Nc4ccc(Cl)cc4)c3)cc(=O)c2c(OC)c1OC` , thanks.
Outgoing: 3.6 µM

----------
# System: SK-MEL-28 melanoma
# Protocol: NCI tumour cell line growth inhibition, 48 h
Quantity kind: TGI

Incoming: TGI lookup needed for O=C1N/C(=N\N=C\c2ccccc2)C(c2ccccc2)O1 (stereo unspecified) , thanks.
Outgoing: > 100 µM

----------
# System: SF-539 CNS
# Protocol: NCI tumour cell line growth inhibition, 48 h
Quantity kind: TGI

Incoming: TGI lookup needed for `C[C@@]1([C@H](OC(=O)c2ccccc2)C(N)=O)CO1` , thanks.
Outgoing: 55.7 µM

----------
In this section, each of the compounds is paired with its reported TGI.
# Test system: A498 renal
# Protocol: NCI tumour cell line growth inhibition, 48 h

Some entries whose results are on file:
| Compound | Quantity kind | Value observed |
| --- | --- | --- |
| O=S(O)CCCCCSSc1ccccc1 | TGI | > 100 µM |
| COc1ccc(C(O)/C(=N/N)c2nc3ccc(Cl)cc3[nH]c2=O)cc1 (configuration not stated) | TGI | > 100 µM |
| CN(C)c1ccc(/C=C/C(=O)c2ccc(O)cc2)cc1 | TGI | > 65.7 µM |
| CC1(C)CCN2C(=O)C34CCCC3CC21S4 (configuration not stated) | TGI | > 100 µM |
| OCC#CCNCl | TGI | > 100 µM |

Incoming: TGI lookup needed for CCS(=O)C(=O)N(O)c1ccc(Cl)cc1 (configuration not stated) , thanks.
Outgoing: > 100 µM

Incoming: TGI lookup needed for `NS(=O)(=O)c1ccc(Nc2cc(-c3ccc(O)c(F)c3)[nH]n2)cc1` , thanks.
Outgoing: > 25 µM

----------
# Test system: MOLT-4 leukemia
# Protocol: NCI tumour cell line growth inhibition, 48 h
Quantity kind: TGI

| Compound | System under test | Value observed |
| --- | --- | --- |
| CC(C)(CN1C(=O)C(Cl)=C(Cl)C1=O)CN1C(=O)C(Cl)=C(Cl)C1=O | MOLT-4 leukemia | 30.1 µM |

Incoming: TGI lookup needed for CS(=O)(=O)N1CC(CCl)c2ccc(NO)cc21 (configuration not stated) , thanks.
Outgoing: 19 µM

Incoming: TGI lookup needed for `CC1=C(c2nc3ccccc3s2)C(=O)OC1(C)C` , thanks.
Outgoing: > 100 µM

Incoming: TGI lookup needed for `O=C1c2ccccc2C(=O)c2cc3c(cc21)CS(=O)C3` , thanks.
Outgoing: > 100 µM

Incoming: TGI lookup needed for CCCCN(CCCC)C(=O)[C@H](CC)[C@@H]1CC[C@@H](C)[C@@H]([C@H](C)[C@@H](O)[C@@H](C)C(=O)[C@H](CC)C2O[C@]3(C=C[C@@H](O)[C@]4(CC[C@@](C)([C@H]5CC[C@](O)(CC)[C@H](C)O5)O4)O3)[C@H](C)C[C@@H]2C)O1 (some centres not stated) , thanks.
Outgoing: 8.31 µM

Incoming: TGI lookup needed for `CCN(CC)CCCNc1c2c(Cl)cc(Cl)cc2nc2nc(=O)[nH]c(C)c12` , thanks.
Outgoing: 54.3 µM

Incoming: TGI lookup needed for CSc1ncnc2c1cnn2Cc1cnnn1COCC(O)CO (configuration not stated) , thanks.
Outgoing: > 100 µM

Incoming: TGI lookup needed for CC(C)(C)OC(=O)NC1CCCC1C(=O)C1=CCCC1 (configuration not stated) , thanks.
Outgoing: > 100 µM
